- Tested on: A498
- test: SRB anti-cancer assay, Renal Cancer
- Type: cell-based, human
- experimentalConditions: 48 h, read-out: LC50 (the source's name)
CC50 listing for selected compounds.

Example results:
# smilesRepresentation, CC50
records = [
    ("N=c1nc(N)c2ncn([C@@H]3O[C@H](COC(=O)c4ccccc4)[C@@H](OC(=O)c4ccccc4)[C@H]3OC(=O)c3ccccc3)c2c(N)n1", "71.8 µM"),
    ("N=c1nc(N)c2ncn([C@@H]3O[C@H](CO)[C@@H](O)[C@H]3O)c2c(N)n1", "> 100 µM"),
]

Then there is this compound:
Exercise: Look up CC50: N=c1[nH]c(=O)c2ncn([C@@H]3O[C@H](CO)[C@@H](O)[C@H]3O)c2c(=O)[nH]1
Solution: > 100 µM
